// provenance: patent US20050101595A1

- target-system: CDK2/Cyclin A (Homo sapiens)
- test-summary: Inhibition of CDK2/Cyclin A Retinoblastoma Kinase Activity
- Format: biochemical
- test-conditions: 0.03 μM compound; Table 4

[
  {
    "compound": "CCCCOc1ccc(C(=O)N2CCC(Nc3nc(N)c(C(=O)c4c(F)cccc4F)s3)CC2)cc1 [Example Q29]",
    "unit-abbreviation": "%",
    "CDK2 % Inhibition at 0.03 μM": 21
  },
  {
    "compound": "Nc1nc(NC2CCN(C(=O)c3ccc(C(F)(F)F)cc3)CC2)sc1C(=O)c1c(F)cccc1F [Example Q33]",
    "unit-abbreviation": "%",
    "CDK2 % Inhibition at 0.03 μM": 23
  },
  {
    "compound": "CC(C)(C)c1ccc(C(=O)N2CCC(Nc3nc(N)c(C(=O)c4c(F)cccc4F)s3)CC2)cc1 [Example Q34]",
    "unit-abbreviation": "%",
    "CDK2 % Inhibition at 0.03 μM": 28
  },
  {
    "compound": "CC(=O)OCC(=O)N1CCC(Nc2nc(N)c(C(=O)c3c(F)cccc3F)s2)CC1 [Example Q76]",
    "unit-abbreviation": "%",
    "CDK2 % Inhibition at 0.03 μM": 27
  },
  {
    "compound": "COc1ccc(OC)c(CC(=O)N2CCC(Nc3nc(N)c(C(=O)c4c(F)cccc4F)s3)CC2)c1 [Example Q78]",
    "unit-abbreviation": "%",
    "CDK2 % Inhibition at 0.03 μM": 39
  },
  {
    "compound": "Nc1nc(NC2CCN(C(=O)c3ccccc3Br)CC2)sc1C(=O)c1c(F)cccc1F [Example Q10]",
    "unit-abbreviation": "%",
    "CDK2 % Inhibition at 0.03 μM": 23
  },
  {
    "compound": "Nc1nc(NC2CCN(C(=O)[C@@H]3C[C@H]3c3ccccc3)CC2)sc1C(=O)c1c(F)cccc1F (relative stereo) [Example Q55]",
    "unit-abbreviation": "%",
    "CDK2 % Inhibition at 0.03 μM": 29
  }
]
